# system.name: UniProt:P08485
# Sequence (P08485 whole entry): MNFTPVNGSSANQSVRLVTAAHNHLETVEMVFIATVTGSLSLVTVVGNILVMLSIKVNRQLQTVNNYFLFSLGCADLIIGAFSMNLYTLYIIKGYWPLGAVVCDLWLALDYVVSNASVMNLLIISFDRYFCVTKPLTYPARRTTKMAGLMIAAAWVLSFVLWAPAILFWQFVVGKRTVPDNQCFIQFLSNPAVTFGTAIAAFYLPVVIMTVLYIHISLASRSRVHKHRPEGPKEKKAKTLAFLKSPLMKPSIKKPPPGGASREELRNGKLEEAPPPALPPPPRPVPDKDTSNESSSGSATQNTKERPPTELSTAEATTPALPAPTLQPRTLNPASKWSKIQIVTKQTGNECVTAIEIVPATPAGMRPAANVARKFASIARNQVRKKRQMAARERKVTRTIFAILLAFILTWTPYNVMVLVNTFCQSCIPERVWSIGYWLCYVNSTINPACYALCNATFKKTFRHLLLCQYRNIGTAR
measurement.name: pKi
Answers are plain numbers, as −log10 of the molar value.

| compound | measurement.name | value |
| --- | --- | --- |
| CCN(CCCC(=O)C1CCCCC1)C(C)Cc1ccc(OC)cc1 (stereo not given) [NSC_42470] | pKi | 8.11 |

Provide reported pKi for each item, in the same order as listed.
1. COc1ccccc1CNCCCCCCNCCCCCCCCNCCCCCCNCc1ccccc1OC [METHOCTRAMINE]
2. C[N+]1(C)CCC(OC(=O)C(c2ccccc2)c2ccccc2)CC1
3. CCN(CC)CC1CCCCN1CC(=O)N1c2ccccc2C(=O)Nc2cccnc21 (stereo not given)
4. O[Si](CCCN1CCCCC1)(c1ccccc1)C1CCCCC1 (stereo not given) [HHSiD]

1: 6.39; 2: 8.85; 3: 6.21; 4: 7.33

###

# Muscarinic acetylcholine receptor M1 (Rattus norvegicus, UniProt P08482): Ki values follow
# Sequence (P08482 whole entry): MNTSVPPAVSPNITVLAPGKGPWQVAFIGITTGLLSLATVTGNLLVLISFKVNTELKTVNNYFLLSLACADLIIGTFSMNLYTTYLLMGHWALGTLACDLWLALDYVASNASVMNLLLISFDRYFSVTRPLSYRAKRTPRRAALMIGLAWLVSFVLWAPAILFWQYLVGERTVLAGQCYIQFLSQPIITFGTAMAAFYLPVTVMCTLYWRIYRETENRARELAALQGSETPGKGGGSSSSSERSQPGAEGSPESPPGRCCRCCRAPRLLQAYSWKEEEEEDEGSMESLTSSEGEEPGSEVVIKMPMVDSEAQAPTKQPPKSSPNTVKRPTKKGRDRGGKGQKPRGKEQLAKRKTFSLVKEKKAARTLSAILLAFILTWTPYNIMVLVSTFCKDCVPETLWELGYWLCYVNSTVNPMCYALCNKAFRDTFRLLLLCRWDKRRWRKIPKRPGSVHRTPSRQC
Report as: number unit

| compound | measurement.name | value |
| --- | --- | --- |
| O[Si](CCCN1CCCCC1)(c1ccccc1)C1CCCCC1 (stereo not drawn) [HHSiD] | Ki | 60 nM |

Below are some compounds; for each one, tell me its Ki.
1. CCN(CC)CC1CCCCN1CC(=O)N1c2ccccc2C(=O)Nc2cccnc21 (stereo not drawn)
2. CCN(CCCC(=O)C1CCCCC1)C(C)Cc1ccc(OC)cc1 (stereo not drawn) [NSC_42470]

1. 1200 nM
2. 5.9 nM
